experimental_system: UniProt:O95136
Sequence (O95136 whole entry): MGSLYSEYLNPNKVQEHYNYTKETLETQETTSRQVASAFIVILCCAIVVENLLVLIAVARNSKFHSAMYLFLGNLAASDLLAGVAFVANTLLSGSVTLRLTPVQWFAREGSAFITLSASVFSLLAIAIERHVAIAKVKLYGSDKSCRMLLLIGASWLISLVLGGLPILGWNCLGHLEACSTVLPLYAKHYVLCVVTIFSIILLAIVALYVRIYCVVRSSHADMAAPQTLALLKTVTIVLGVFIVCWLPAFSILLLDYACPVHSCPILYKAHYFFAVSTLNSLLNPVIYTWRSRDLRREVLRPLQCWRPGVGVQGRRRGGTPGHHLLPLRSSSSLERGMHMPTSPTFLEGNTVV
test: S1P2 antagonist assay (Ca2+ flux, S1P at EC80)
setup_conditions: CHO-S1PR2 cells, highest concentration 20 μM
pEC50: −log10 of the molar value.

compound | pEC50
Cc1cc(CNC(=O)Nc2cc(OCC(O)CO)nc(C(F)(F)F)c2)nnc1-c1cn(C)nc1C(F)(F)F (centres unmarked) [Compound 5] | 5.18
CCOc1cc(NC(=O)NCc2cc(C)c(N3CC(C)OC(C)C3)nn2)cc(C(F)(F)F)n1 (centres unmarked) [Compound 87] | 7.38
Cc1cc(CNC(=O)Nc2cnc(OCC(F)(F)F)c(C(F)(F)F)c2)nnc1-c1cn(C)nc1C(F)(F)F [Compound 12] | 7.93
CCOc1cc(NC(=O)NCc2cc(C)c(-c3cn(C4CCOC4)nc3C(F)(F)F)nn2)cc(C(F)(F)F)n1 (centres unmarked) [Compound 52] | 7.94
CCOc1nc(C#N)cc(NC(=O)NCc2cc(C)c(-c3cn(C)nc3C(F)(F)F)nn2)c1C [Compound 57] | 8.12
Cc1cc(CNC(=O)Nc2cnc(OCC3CC3)c(Cl)c2)nnc1N1CC(C)OC(C)C1 (centres unmarked) [Compound 88] | 5.35
Cc1cc(CNC(=O)Nc2cc(Cl)nc(Cl)c2)nnc1-c1cn(C)nc1C(F)(F)F [Compound 21] | 7.76
CN(C)Cc1cc(CNC(=O)Nc2cc(Cl)nc(OCC(F)F)c2)nnc1-c1cn(C)nc1C(F)(F)F [Compound 65] | 5.79
